- Tested on: P. aerug. Ps296 VIM-2
- PROCEDURE_DETAILS: Broth microdilution MIC, P. aeruginosa Ps296
- Assay type: cell-based
- REPORTED_CONDITIONS: Pseudomonas aeruginosa; fixed meropenem 4 μg/mL, CAMHB, 16-20 hours 37° C.; read-out: MIC of exemplary compounds in presence of fixed β-lactams, Fixed Mero, P. aerug. Ps296 VIM-2
Quick reference: MIC of the listed items.
REPORTED_METRIC: MIC

[
  {
    "MOLECULE": "NCCN[C@H]1CC[C@H](CC(=O)N[C@H]2Cc3cccc(C(=O)O)c3OB2O)CC1",
    "EXPERIMENTAL_VALUE": "< 4 µg/mL"
  },
  {
    "MOLECULE": "CN(C)[C@H]1CC[C@H](CC(=O)N[C@H]2Cc3cccc(C(=O)O)c3OB2O)CC1",
    "EXPERIMENTAL_VALUE": "> 32 µg/mL"
  },
  {
    "MOLECULE": "NCCN[C@H]1CC[C@@H](CC(=O)N[C@H]2Cc3cccc(C(=O)O)c3OB2O)CC1",
    "EXPERIMENTAL_VALUE": "< 4 µg/mL"
  },
  {
    "MOLECULE": "N=C(N)N1CCC(CN[C@H]2CC[C@H](CC(=O)N[C@H]3Cc4cccc(C(=O)O)c4OB3O)CC2)CC1",
    "EXPERIMENTAL_VALUE": "< 4 µg/mL"
  },
  {
    "MOLECULE": "CCNCCN[C@H]1CC[C@H](CC(=O)N[C@H]2Cc3cccc(C(=O)O)c3OB2O)CC1",
    "EXPERIMENTAL_VALUE": "< 4 µg/mL"
  },
  {
    "MOLECULE": "NCC(N)[C@H]1CC[C@H](CC(=O)N[C@H]2Cc3cccc(C(=O)O)c3OB2O)CC1 (stereo partly drawn)",
    "EXPERIMENTAL_VALUE": "< 4 µg/mL"
  }
]
